System: DU-145
Method summary: Cytotoxicity against human DU145 cells after 72 hrs by SRB assay
Format: functional
Condition info: DU-145, 72 h, read-out: ED50 (the source's name)
Exercise: state measured EC50 for each of the molecules provided.
Report the value in µg/mL with no unit label.

If you can, please state the reported EC50 value of CCc1cccc2c(OC)c(-c3occ(C)c3C(=O)OC)ccc12 . 2.2

If you can, please state the reported EC50 value of COc1cccc2c(O)c(-c3occ(C)c3C(=O)O)ccc12 . 8.2

If you can, please state the reported EC50 value of CCc1cccc2c1ccc1c3occ(C)c3c(=O)oc21 . 15.9

If you can, please state the reported EC50 value of CCc1cccc2c(O)c(-c3occ(C)c3C(=O)O)ccc12 . 8.7

----------
Test system: ZR-75-1
Method summary: Cytotoxicity against human ZR-75-1 cells expressing estrogen receptor and HER2 after 72 hrs by SRB assay
Assay type: functional
Condition info: ZR-75-1, 72 h, read-out: ED50 (the source's name)
Exercise: state measured EC50 for each of the compounds provided.
Report the value in µg/mL with no unit label.

If you can, please state the reported EC50 value of CCc1cccc2c(OC)c(-c3occ(C)c3C(=O)OC)ccc12 . 1.3

If you can, please state the reported EC50 value of CCc1cccc2c(O)c(-c3occ(C)c3C(=O)O)ccc12 . 0.3

If you can, please state the reported EC50 value of COc1cccc2c(O)c(-c3occ(C)c3C(=O)O)ccc12 . 0.6

If you can, please state the reported EC50 value of CCc1cccc2c1ccc1c3occ(C)c3c(=O)oc21 . 0.1

----------
Method summary: Cytotoxicity against vincristine-resistant human KBVIN cells after 72 hrs by SRB assay
Type: functional
Condition info: read-out: ED50 (the source's name)
Exercise: state measured EC50 for each of the molecules provided.
Report the value in µg/mL with no unit label.

If you can, please state the reported EC50 value of COc1cccc2c(O)c(-c3occ(C)c3C(=O)O)ccc12 . 8.9

If you can, please state the reported EC50 value of CCc1cccc2c1ccc1c3occ(C)c3c(=O)oc21 . 13.2

If you can, please state the reported EC50 value of CCc1cccc2c(OC)c(-c3occ(C)c3C(=O)OC)ccc12 . 1.3

If you can, please state the reported EC50 value of CCc1cccc2c(O)c(-c3occ(C)c3C(=O)O)ccc12 . 7
